- Tested on: MDRSA 11.7
- Assay Details: MIC on multidrug resistant clinical S. aureus strain MDRSA 11.7 (EUCAST/CLSI)
- Format: cell-based
- Experimental Parameters: Staphylococcus aureus
MIC less than 1 µM is class 1; MIC greater than or equal to 1 µM is class 0.

Some solved cases for reference:
Compound	Assigned Class
NC(=O)c1c(F)ccc(OCCC2COc3ccccc3O2)c1F (stereo not shown) [II, reference compound]	class 0
Cc1nc(-c2ccc3c(c2)OC(COc2ccc(F)c(C(N)=O)c2F)CO3)no1 (stereo not shown) [VI, reference compound]	class 0
NC(=O)c1c(F)ccc(OCC2COc3cc4ccccc4cc3O2)c1F (stereo not shown) [Compound 4]	class 0
CCc1nc(-c2ccc3c(c2)OC(CCOc2ccc(F)c(C(N)=O)c2F)CO3)no1 (stereo not shown) [Compound 2]	class 1
NC(=O)c1c(F)ccc(OCCC2COc3cc4ccccc4cc3O2)c1F (stereo not shown) [Compound 5]	class 0

A record lists CCc1nc(-c2ccc3c(c2)OC(COc2ccc(F)c(C(N)=O)c2F)CO3)no1 (stereo not shown) [VII, reference compound] . Is its MIC below 1 µM? class 0

A record lists Cc1nc(-c2ccc3c(c2)OC(CCOc2ccc(F)c(C(N)=O)c2F)CO3)no1 (stereo not shown) [Compound 1] . Is its MIC below 1 µM? class 0

A record lists NC(=O)c1c(F)ccc(OCCCOc2ccc3ccccc3c2)c1F [Compound 6] . Is its MIC below 1 µM? class 0

A record lists CSc1nc(-c2ccc3c(c2)OC(CCOc2ccc(F)c(C(N)=O)c2F)CO3)no1 (stereo not shown) [Compound 3] . Is its MIC below 1 µM? class 0

A record lists NC(=O)c1c(F)ccc(OCCC2COc3cc4c(cc3O2)CCCC4)c1F (stereo not shown) [Compound 8] . Is its MIC below 1 µM? class 1

A record lists NC(=O)c1c(F)ccc(OCC2COc3cc4c(cc3O2)CCCC4)c1F (stereo not shown) [Compound 7] . Is its MIC below 1 µM? class 0

A record lists NC(=O)c1c(F)ccc(OCC2COc3ccccc3O2)c1F (stereo not shown) [I, reference compound] . Is its MIC below 1 µM? class 0

* * *

- Tested on: MRC-5 cells
- Assay Details: MTT cytotoxicity assay on MRC-5 cells
- Type: cell-based, human
- Experimental Parameters: concentration reducing viability of MRC-5 cells by 90%, 24 h incubation
Recorded Metric: TD90 (µM)
Give a bare numeral; the unit µM is implied.

Molecule	Unit Info	TD90
NC(=O)c1c(F)ccc(OCC2COc3ccccc3O2)c1F (stereo not shown) [I, reference compound]	µM	49.8
CSc1nc(-c2ccc3c(c2)OC(COc2ccc(F)c(C(N)=O)c2F)CO3)no1 (stereo not shown) [V, reference compound]	µM	1700
NC(=O)c1c(F)ccc(OCCC2COc3cc4c(cc3O2)CCCC4)c1F (stereo not shown)	µM	2054
CCc1nc(-c2ccc3c(c2)OC(CCOc2ccc(F)c(C(N)=O)c2F)CO3)no1 (stereo not shown)	µM	1854

Notebook: NC(=O)c1c(F)ccc(OCC2COc3cc4c(cc3O2)CCCC4)c1F (stereo not shown) , TD90 read as 200

Notebook: CSc1nc(-c2ccc3c(c2)OC(CCOc2ccc(F)c(C(N)=O)c2F)CO3)no1 (stereo not shown) , TD90 read as 1668

Notebook: NC(=O)c1c(F)ccc(OCCC2COc3cc4ccccc4cc3O2)c1F (stereo not shown) , TD90 read as 233

Notebook: NC(=O)c1c(F)ccc(OCCC2COc3ccccc3O2)c1F (stereo not shown) [II, reference compound] , TD90 read as 226

Ref: paper PMC8071314
